src = PubChem BioAssay

- METHOD NOTES: optical density change of DRC41 E. coli – strain DRC41, OD650, 24 h, E. coli filamentation project, primary screen (AID 1093);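 note: MC1000 strain lacking acrAB efflux and sulA so SOS filamentation is blocked; test concentration not given here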
- CONDITION SUMMARY: E. coli DRC41 growth, higher = more signal, called active from +8 up or from −8 down
Use Satisfied when the recorded z-score is no lower than 0.5; use Not satisfied when it is lower.

Query: hey, is z-score for this one >= 0.5? Cc1ccc(S[C@]2(C(=O)NCc3ccccc3)CC(=O)N(Cc3ccccc3C(F)(F)F)[C@@H]2c2ccc(CO)cc2)cc1
Response: Satisfied

Query: hey, is z-score for this one >= 0.5? Cc1ccc(S[C@]2(C(=O)NC(C)C)CC(=O)N(C3CCCCC3)[C@@H]2c2ccc(CO)cc2I)cc1
Response: Not satisfied

Query: hey, is z-score for this one >= 0.5? COC(=O)[C@@]1(Cc2ccccc2)[C@H]2c3cc(C(=O)N(C)C)n(Cc4ccc(C(F)(F)F)nc4)c3C[C@H]2CN1C(=O)c1ccccc1
Response: Not satisfied

Query: hey, is z-score for this one >= 0.5? COCCOC(=O)N1C(=O)[C@@]2(c3cc(C#CC4(O)CCCCCC4)ccc31)[C@H](c1ccc(O)cc1)N1[C@H](c3ccccc3)[C@H](c3ccccc3)OC(=O)[C@H]1[C@@H]2C(=O)N1CCCCCCC1
Response: Satisfied

Query: hey, is z-score for this one >= 0.5? COC(=O)[C@@]1(Cc2ccc(F)cc2)[C@H]2c3cc(C(=O)N4CCCC4)n(Cc4ccccn4)c3C[C@H]2CN1C(=O)c1ccccc1
Response: Not satisfied

Query: hey, is z-score for this one >= 0.5? CC(C)[Si](C#CCCc1ccccc1)(O[C@H](c1ccccc1)c1cn(Cc2ccccc2)nn1)C(C)C
Response: Satisfied

Query: hey, is z-score for this one >= 0.5? C=CCNC(=O)[C@H]1[C@@H]2C(=O)O[C@@H](c3ccccc3)[C@@H](c3ccccc3)N2[C@@H](c2ccc(OCCO)cc2)[C@]12C(=O)Nc1ccccc12
Response: Satisfied

Query: hey, is z-score for this one >= 0.5? CC1CC/C=C\[C@H]2OC34C=CCN(C(C)(C)C)C(=O)[C@H]3N(CCCO)C(=O)[C@@H]4C2C(=O)O1 (some centres not stated)
Response: Satisfied

Query: hey, is z-score for this one >= 0.5? CC(C)N1C(=O)c2ccccc2[C@](C)(C(=O)NCC(F)(F)F)[C@@H]1c1ccc(CO)cc1
Response: Satisfied

Query: hey, is z-score for this one >= 0.5? O=C1[C@@H]2[C@@H](CC(COc3ccccc3)=C([C@H](O)CCc3ccccc3)[C@@H]2CO)C(=O)N1Cc1ccccc1
Response: Satisfied

Query: hey, is z-score for this one >= 0.5? CC1=C([C@H](O)CCc2ccccc2)[C@H](CO)n2c(=O)n(-c3ccccc3)c(=O)n2C1
Response: Satisfied

Query: hey, is z-score for this one >= 0.5? C[N+](C)(C)CCCC[C@@H]1NC(=O)[C@@H]2C[C@H](C(=O)NCc3ccc(F)cc3)[C@H](c3ccc(O)cc3)N2C1=O
Response: Not satisfied

Query: hey, is z-score for this one >= 0.5? Cc1ccc(S[C@]2(C(=O)NCC(F)(F)F)CC(=O)N(Cc3ccccc3C(F)(F)F)[C@@H]2c2ccc(CO)cc2)cc1
Response: Not satisfied

Query: hey, is z-score for this one >= 0.5? CC(C)C[C@@H]1NC(=O)[C@@]23C(=O)N[C@@H](Cc4ccccc4)C2[C@H](C)[C@@]2(C)O[C@H]2C3/C=C/C/C=C\CNC(=O)CNC1=O (some centres not stated)
Response: Not satisfied

Query: hey, is z-score for this one >= 0.5? CCCN1C(=O)[C@@]2(c3ccc([N+](=O)[O-])cc3)CC(=O)N(CC34CC5CC(CC(C5)C3)C4)[C@@H]2c2ccc(CO)cc21
Response: Not satisfied

Query: hey, is z-score for this one >= 0.5? C=C(COC)C(=O)CC[C@@H](OC(=O)c1ccccc1-c1ccccc1C(=O)O)c1ccc(OCCO)cc1
Response: Not satisfied

Query: hey, is z-score for this one >= 0.5? O=C(O)[C@H](Cc1ccccc1)n1cc(C2(O)CCCCC2)nn1
Response: Not satisfied

Query: hey, is z-score for this one >= 0.5? COCCOC(=O)N1C(=O)[C@@]2(c3cc(C#CCC(C(=O)OC)C(=O)OC)ccc31)[C@H](C(=O)Nc1nc3ccccc3s1)[C@H]1C(=O)O[C@H](c3ccccc3)[C@H](c3ccccc3)N1[C@@H]2c1ccc(OCCO)cc1
Response: Satisfied

Query: hey, is z-score for this one >= 0.5? COC(=O)C[C@H]1O[C@@]2(C[C@@H]1[Si](C)(C)C)C(=O)N(C)c1ccccc12
Response: Satisfied

Query: hey, is z-score for this one >= 0.5? C=CCC(OC(C)=O)[C@@H]1[C@@H](N(Cc2cc3ccccc3o2)C(=O)c2cccc3ccccc23)c2cc(OCCCO)ccc2N1C(=O)c1ccc2ccccc2n1 (some centres not stated)
Response: Satisfied

Query: hey, is z-score for this one >= 0.5? CN(C)CCCNC(=O)[C@@H]1c2ccccc2C(=O)N(Cc2ccccc2C(F)(F)F)[C@H]1c1ccc(CO)cc1
Response: Satisfied

Query: hey, is z-score for this one >= 0.5? COC(=O)[C@@]1(Cc2ccc(OC)cc2)[C@H]2c3cc(C(=O)N4CCCC4)n(CCn4cc([N+](=O)[O-])nc4C)c3C[C@H]2CN1C(=O)c1ccccc1
Response: Not satisfied

Query: hey, is z-score for this one >= 0.5? O=C1O[C@@H](c2ccccc2)[C@@H](c2ccccc2)N2[C@@H](c3ccc(OCCO)cc3)[C@]3(C(=O)Nc4ccc(C#CC5(O)CCCCCC5)cc43)[C@@H](C(=O)O)[C@H]12
Response: Satisfied

Query: hey, is z-score for this one >= 0.5? O=C(NCC(O)CO)[C@@]1(CCS(=O)(=O)c2ccccc2)N=C(c2ccc(OCCCO)cc2)O[C@H]1c1ccccc1 (some centres not stated)
Response: Not satisfied

Query: hey, is z-score for this one >= 0.5? CO[C@H]1O[C@H](CO)[C@@H](OC(=O)Nc2ccc3c(c2)OCO3)[C@H](OC(=O)Nc2ccccc2-c2ccccc2)[C@H]1OC(=O)Nc1ccccc1-c1ccccc1
Response: Satisfied

Query: hey, is z-score for this one >= 0.5? COc1ccc(C#Cc2ccc3c(c2)[C@]2(C(=O)N3)[C@H](C(=O)O)[C@H]3C(=O)O[C@H](c4ccccc4)[C@H](c4ccccc4)N3[C@@H]2c2ccccc2OCCO)cc1
Response: Satisfied

Query: hey, is z-score for this one >= 0.5? COC(=O)[C@@]1(Cc2ccc(F)cc2)[C@H]2c3cc(C(=O)N(C)C)n(CCc4ccc(O)c(O)c4)c3C[C@H]2CN1C(=O)c1ccccc1
Response: Not satisfied
